These entries and their values trace back to the kinase profiling compilation of Christmann-Franck et al. (2016).

# Experimental system: STK10 (human)
# Protocol text: radiometric filter-binding kinase assay, Kinase HotSpot
# Cond: compound 0.5 µM; ATP 10 µM
Readout name: residual activity (%)
Numeric only. Scale: %

Use these answered entries as a reference point.
With STK10 (human) as the test system, Cc1cncc2cccc(S(=O)(=O)N3CCCN(C(=O)CN)C[C@H]3C)c12 showed residual activity of 42

With STK10 (human) as the test system, COc1cc2ncnc(Nc3ccc(Oc4ccccc4)cc3)c2cc1OC showed residual activity of 74

With STK10 (human) as the test system, C[C@@H]1CCN(C(=O)CC#N)C[C@@H]1N(C)c1ncnc2[nH]ccc12 showed residual activity of 92.9

With STK10 (human) as the test system, Fc1ccc(-c2nc3n(c2-c2ccncc2)CCS3)cc1 showed residual activity of 94.9

With STK10 (human) as the test system, CN(C)CCCn1cc(C2=C(c3c[nH]c4ccccc34)C(=O)NC2=O)c2ccccc21 showed residual activity of 19.4

With STK10 (human) as the test system, COc1ccc(S(=O)(=O)N(CCO)c2ccccc2CN(C)C/C=C/c2ccc(Cl)cc2)cc1 showed residual activity of 99.4

With STK10 (human) as the test system, Cc1cccc(-c2nc(C(C)(C)C)[nH]c2-c2ccc3c(c2)OCO3)n1 showed residual activity of 94.5

With STK10 (human) as the test system, CN(C)S(=O)(=O)c1ccc2c(c1)/C(=C/c1cc3c([nH]1)CCCC3)C(=O)N2 showed residual activity of 9.53

With STK10 (human) as the test system, N#Cc1c[nH]c2c[nH]/c(=N\Cc3cccnc3)cc2/c1=N\c1ccc(F)c(Cl)c1 showed residual activity of 52.8

With STK10 (human) as the test system, COc1ccc2c(c1)/C(=C/c1cnc[nH]1)C(O)=N2 showed residual activity of 67

***
With STK10 (human) as the test system, c1ccc2c(-c3ccncc3)c[nH]c2c1 showed residual activity of 93.7

With STK10 (human) as the test system, Ic1cccc(CSc2nnc(-c3ccncc3)o2)c1 showed residual activity of 93.8

With STK10 (human) as the test system, COc1cc(Nc2c(C#N)cnc3cc(OCCCN4CCN(C)CC4)c(OC)cc23)c(Cl)cc1Cl showed residual activity of 12.6

With STK10 (human) as the test system, O=C1c2ccccc2-c2nc3nnnn3nc21 showed residual activity of 84.3
